# System: TNK1;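 also: KINOMEscan kinase panel screen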
# experimental_context: concentration: 1 μM, replicates: in singlicate; n = 1
readout: %Inh (%)
Value expressed in %; do not type the unit.

Consider the reported %Inh for these compounds:
CC(=O)Nc1cn2nc(Oc3cccc(NC(=O)c4cccc(C(F)(F)F)c4)c3)ccc2n1 ... 68
CC(C)c1nc(-c2ccc(F)c(NS(=O)(=O)c3c(F)cccc3F)c2)c(-c2ccnc(Nc3ccc(N4CCOCC4)nc3)n2)s1 [GSK1804250] ... 100
Fc1cc(Cl)ccc1Nc1ccnc2cc(-c3ccc(CN4CCSCC4)o3)ccc12 [GW560106] ... 87

Next up:
Problem: Give %Inh for the following compound: Cl.N#CCc1ccc(Nc2nccc(Nc3ccc(Oc4ccccc4)cc3)n2)cc1 [GW639905]
Solution: 59
